Target: AHR (UniProt P35869)
Construct: IC50
Sequence (P35869 1-848): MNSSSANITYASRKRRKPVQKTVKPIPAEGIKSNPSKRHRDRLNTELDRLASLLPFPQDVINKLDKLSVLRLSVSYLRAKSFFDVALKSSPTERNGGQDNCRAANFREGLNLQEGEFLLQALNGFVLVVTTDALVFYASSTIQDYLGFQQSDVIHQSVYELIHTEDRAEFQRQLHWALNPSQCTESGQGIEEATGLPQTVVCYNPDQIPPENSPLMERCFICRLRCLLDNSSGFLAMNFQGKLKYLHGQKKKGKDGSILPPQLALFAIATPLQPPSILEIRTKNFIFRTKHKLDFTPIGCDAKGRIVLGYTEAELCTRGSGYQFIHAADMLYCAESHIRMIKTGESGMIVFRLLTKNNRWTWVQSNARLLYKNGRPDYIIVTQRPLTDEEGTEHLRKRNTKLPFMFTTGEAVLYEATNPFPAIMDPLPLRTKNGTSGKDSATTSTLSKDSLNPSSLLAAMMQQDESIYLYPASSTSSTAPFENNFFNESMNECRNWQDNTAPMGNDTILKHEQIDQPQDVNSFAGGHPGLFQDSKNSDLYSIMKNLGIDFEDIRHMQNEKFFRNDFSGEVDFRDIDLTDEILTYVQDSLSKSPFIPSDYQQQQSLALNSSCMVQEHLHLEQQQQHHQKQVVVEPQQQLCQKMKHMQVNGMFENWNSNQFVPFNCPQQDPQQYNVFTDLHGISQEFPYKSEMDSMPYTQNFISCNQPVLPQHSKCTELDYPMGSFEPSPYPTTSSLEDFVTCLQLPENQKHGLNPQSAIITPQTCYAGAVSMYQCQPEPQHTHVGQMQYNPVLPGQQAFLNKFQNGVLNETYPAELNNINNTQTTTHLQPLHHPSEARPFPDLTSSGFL
Assay: DRE-Luciferase Reporter Assay (Alternate Method) (Example 1B)
Type: cell-based, murine or human
Conditions: cell line and AHR activating ligand not specified
pIC50: −log10 of the molar value.
property_measured: pIC50

{"molecule": "CC(C)c1cnn2c(N[C@H]3Cc4ccc(O)cc4C3)cc(-c3cncc(C#N)c3)nc12 (single isomer, unassigned) [I-37a]", "target_or_test_system": "AHR (UniProt P35869)", "measured_value": "< 5.82"}
{"molecule": "CC(C)c1cnn2c(NCCc3c[nH]c4ccccc34)cc(-c3cncnc3)nc12", "target_or_test_system": "AHR (UniProt P35869)", "measured_value": "> 6.30"}
{"molecule": "CC(C)n1cnc2c(N[C@@H]3CCc4[nH]c5ccccc5c4C3)nc(-c3cncc(F)c3)nc21", "target_or_test_system": "AHR (UniProt P35869)", "measured_value": "> 6.30"}

Please indicate recorded pIC50 of `Cc1cnn2c(N[C@@H]3CCc4[nH]c5ccccc5c4C3)cc(-c3cncc(F)c3)nc12` measured with AHR (UniProt P35869).
< 5.82

Please indicate recorded pIC50 of `Fc1cncc(-c2cc(NCCc3c[nH]c4ccccc34)n3ncc(C(F)(F)F)c3n2)c1` measured with AHR (UniProt P35869).
> 6.30

Please indicate recorded pIC50 of `N#Cc1cncc(-c2cc(NCCc3c[nH]c4ccccc34)n3nccc3n2)c1` measured with AHR (UniProt P35869).
6.00 to 6.30

Please indicate recorded pIC50 of `CC(C)(C)c1cnn2c(N[C@@H]3CCc4[nH]c5ccccc5c4C3)nc(-c3cncc(F)c3)nc12` measured with AHR (UniProt P35869).
6.00 to 6.30

Please indicate recorded pIC50 of `Cc1[nH]c2c(F)cccc2c1CCNc1cc(-c2cncc(F)c2)nc2ccnn12` measured with AHR (UniProt P35869).
> 6.30

* * *

Target: AHR (UniProt P35869)
Construct: IC50
Sequence (P35869 1-848): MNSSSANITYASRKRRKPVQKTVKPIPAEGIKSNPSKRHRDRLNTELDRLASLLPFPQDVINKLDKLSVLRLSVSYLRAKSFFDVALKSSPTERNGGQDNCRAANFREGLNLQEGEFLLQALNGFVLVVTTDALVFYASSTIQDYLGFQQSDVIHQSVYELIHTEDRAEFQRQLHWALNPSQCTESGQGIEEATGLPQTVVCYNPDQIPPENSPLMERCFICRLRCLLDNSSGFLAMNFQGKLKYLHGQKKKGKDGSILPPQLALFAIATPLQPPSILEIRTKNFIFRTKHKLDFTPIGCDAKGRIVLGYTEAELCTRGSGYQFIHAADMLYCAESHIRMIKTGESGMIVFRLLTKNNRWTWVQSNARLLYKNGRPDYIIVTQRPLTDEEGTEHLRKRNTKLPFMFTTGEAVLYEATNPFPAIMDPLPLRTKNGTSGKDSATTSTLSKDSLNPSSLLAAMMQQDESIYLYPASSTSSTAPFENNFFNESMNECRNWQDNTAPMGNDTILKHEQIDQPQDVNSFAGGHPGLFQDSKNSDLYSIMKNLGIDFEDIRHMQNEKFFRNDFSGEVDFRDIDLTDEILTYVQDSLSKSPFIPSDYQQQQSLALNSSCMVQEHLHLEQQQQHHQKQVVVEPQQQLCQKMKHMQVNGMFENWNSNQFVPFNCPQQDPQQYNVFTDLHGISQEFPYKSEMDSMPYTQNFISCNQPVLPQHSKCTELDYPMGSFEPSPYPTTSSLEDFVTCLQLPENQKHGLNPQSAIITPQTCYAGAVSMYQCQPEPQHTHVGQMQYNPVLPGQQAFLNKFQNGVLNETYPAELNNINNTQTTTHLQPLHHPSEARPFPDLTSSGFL
Experiment: DRE-Luciferase Reporter Assay (Alternate Method) (Example 1B)
Format: cell-based, murine or human
Settings: cell line and AHR activating ligand not specified
property_measured: IC50

{"molecule": "CC(C)c1cnn2c(NCCc3ccc(O)cc3)cc(-c3cncc(F)c3)nc12", "target_or_test_system": "AHR (UniProt P35869)", "property_measured": "IC50", "measured_value": "< 500 nM"}
{"molecule": "CC(C)c1cnn2c(C(=O)NCc3cccc(O)c3)cc(-c3cncc(F)c3)nc12", "target_or_test_system": "AHR (UniProt P35869)", "property_measured": "IC50", "measured_value": "> 1500 nM"}
{"molecule": "Cc1nn2c(NCCc3c[nH]c4ccccc34)cc(-c3cncc(F)c3)nc2c1C(C)C", "target_or_test_system": "AHR (UniProt P35869)", "property_measured": "IC50", "measured_value": "< 500 nM"}
{"molecule": "CC(C)c1cnn2c(N[C@@H]3Cc4ccc(O)cc4C3)cc(-c3cncc(F)c3)nc12", "target_or_test_system": "AHR (UniProt P35869)", "property_measured": "IC50", "measured_value": "500 to 1000 nM"}
{"molecule": "Cc1cnn2c(NCCc3c[nH]cn3)cc(-c3cncc(F)c3)nc12", "target_or_test_system": "AHR (UniProt P35869)", "property_measured": "IC50", "measured_value": "> 1500 nM"}

Please indicate recorded IC50 of `CC(C)c1cnn2c(N[C@@H]3CCc4[nH]c5ccccc5c4C3)cc(-c3cncnc3)nc12` measured with AHR (UniProt P35869).
> 1500 nM

Please indicate recorded IC50 of `Fc1cncc(-c2nc(N[C@@H]3CCc4[nH]c5ccccc5c4C3)c3ncccc3n2)c1` measured with AHR (UniProt P35869).
< 500 nM

Please indicate recorded IC50 of `CC(C)Oc1nc(NCCc2c[nH]c3ccccc23)cc(-c2cncc(F)c2)n1` measured with AHR (UniProt P35869).
500 to 1000 nM

Please indicate recorded IC50 of CC(C)c1cnn2c(N[C@H]3CCc4c([nH]c5ccccc45)C3)nc(-c3cncc(F)c3)nc12 [I-146a] measured with AHR (UniProt P35869).
> 1500 nM

Please indicate recorded IC50 of `Fc1cncc(-c2nccc(NCCc3c[nH]c4ccccc34)n2)c1` measured with AHR (UniProt P35869).
> 1500 nM

Please indicate recorded IC50 of `CC(C)n1cnc2c(NCCn3c(=O)[nH]c4ccccc43)nc(-c3cncc(F)c3)nc21` measured with AHR (UniProt P35869).
> 1500 nM

Please indicate recorded IC50 of `Cc1nn2c(NCCc3c(C)[nH]c4c(F)cc(F)cc34)cc(-c3cncc(F)c3)nc2c1C(C)C` measured with AHR (UniProt P35869).
> 1500 nM

Please indicate recorded IC50 of `Fc1cncc(-c2cc(NCCc3c[nH]c4cccnc34)n3nccc3n2)c1` measured with AHR (UniProt P35869).
> 1500 nM

Please indicate recorded IC50 of CNC(=O)c1cnn2c(NC3CCc4[nH]c5ccccc5c4C3)nc(-c3cncc(F)c3)nc12 (stereo not drawn) measured with AHR (UniProt P35869).
> 1500 nM

Please indicate recorded IC50 of `C=Cc1cnn2c(NCCc3c[nH]c4ccccc34)cc(-c3cncc(F)c3)nc12` measured with AHR (UniProt P35869).
< 500 nM

Please indicate recorded IC50 of `CC(C)c1cnn2c(NC3Cc4ccccc4C3)cc(-c3cncc(F)c3)nc12` measured with AHR (UniProt P35869).
> 1500 nM

Please indicate recorded IC50 of `CC(C)Oc1cc(-c2ccccc2)nc(NCCc2c[nH]c3ccccc23)n1` measured with AHR (UniProt P35869).
500 to 1000 nM

Please indicate recorded IC50 of CC(C)c1cnn2c(NC3CC3c3ccc(O)cc3)cc(-c3cncc(F)c3)nc12 (stereo not drawn) measured with AHR (UniProt P35869).
> 1500 nM
